# assayTarget: T1, hu-IL-36α (human IL-36α, N-terminally truncated active form K6-F158) (human, UniProt Q9UHA7 6-158)
# T1 construct: Purification tag cleaved off; Biotinylated where captured (SPR, some ELISAs); also called hu-IL-36a
# T1 sequence: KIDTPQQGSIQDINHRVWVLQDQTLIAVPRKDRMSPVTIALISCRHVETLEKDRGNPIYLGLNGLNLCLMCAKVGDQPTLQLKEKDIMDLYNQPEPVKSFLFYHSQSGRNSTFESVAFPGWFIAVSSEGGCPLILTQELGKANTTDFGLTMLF
# assayProcedure: SPR (Biacore 8K), biotinylated hu-IL-36 captured on CAP chip, Fab injected, 37°C
measuredProperty: pKd
Expect pKd as a plain number equal to -log10 of the molar concentration.

Recorded results for 4 binders are shown here.
{"binder": "mAb2.9 Fab (Fab, V domains shown, Recombinant Fab with 8xHis tag (Expi293F)) VH: ELQLQESGPGLVKPSETLSLTCTVSGGSISDSSYYWGWIRQPPGKGLEWIGSIYYTGETYYAPSLKSRVTISVDTSKNQFSLKLSSVTAADTAVYYCARVKYGVGVPRYFDPWGQGTLVTVSS VL: ESVLTQPPSVSGAPGQRVTISCTGSSSNIGAHYDVHWYQQLPGTAPKLLIYGNDNRPSGVPDRFSGSKSGTSASLAITGLQAEDEADYYCQSYDYSLSGYVFGGGTKLTVL", "pKd": 9.92}
{"binder": "mAb2.12 Fab (Fab, V domains shown, Recombinant Fab with 8xHis tag (Expi293F)) VH: ELQLQESGPGLVKPSETLSLTCTVSGGSISESSYYWGWIRQPPGKGLEWIGSIYYTGETYYAPSLKSRVTISVDTSKNQFSLKLSSVTAADTAVYYCARVKYGVGVPRYFDPWGQGTLVTVSS VL: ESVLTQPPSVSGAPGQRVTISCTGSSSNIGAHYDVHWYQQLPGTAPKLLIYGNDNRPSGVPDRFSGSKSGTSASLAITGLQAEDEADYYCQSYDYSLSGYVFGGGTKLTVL", "pKd": 9.80}
{"binder": "mAb2.10 Fab (Fab, V domains shown, Recombinant Fab with 8xHis tag (Expi293F)) VH: ELQLQESGPGLVKPSETLSLTCTVSGGSISDSSYYWGWIRQPPGKGLEWIGSIYYTGETYYAPSLKSRVTISVDTSKNQFSLKLSSVTAADTAVYYCARVRYGVGVPRHFDPWGQGTLVTVSS VL: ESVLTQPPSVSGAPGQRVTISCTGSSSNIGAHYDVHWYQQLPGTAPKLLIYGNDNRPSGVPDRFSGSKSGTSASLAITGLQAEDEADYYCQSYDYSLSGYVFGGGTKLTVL", "pKd": 9.82}
{"binder": "mAb2.8 Fab (Fab, V domains shown, Recombinant Fab with 8xHis tag (Expi293F)) VH: ELQLQESGPGLVKPSETLSLTCTVSGGSISDSSYYWGWIRQPPGKGLEWIGSIYYTGETYYAPSLKSRVTISVDTSKNQFSLKLSSVTAADTAVYYCARLRYGVGVPRYFDPWGQGTLVTVSS VL: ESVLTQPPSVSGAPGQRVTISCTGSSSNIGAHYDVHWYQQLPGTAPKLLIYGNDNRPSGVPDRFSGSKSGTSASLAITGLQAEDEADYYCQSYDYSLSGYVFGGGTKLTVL", "pKd": 9.85}

Okay, next one:
Fill in pKd for record mAb2.11 Fab (Fab, V domains shown, Recombinant Fab with 8xHis tag (Expi293F)) VH: ELQLQESGPGLVKPSETLSLTCTVSGGSISESSYYWGWIRQPPGKGLEWIGSIYYTGETYYAPSLKSRVTISVDTSKNQFSLKLSSVTAADTAVYYCARLRYGVGVPRYFDPWGQGTLVTVSS VL: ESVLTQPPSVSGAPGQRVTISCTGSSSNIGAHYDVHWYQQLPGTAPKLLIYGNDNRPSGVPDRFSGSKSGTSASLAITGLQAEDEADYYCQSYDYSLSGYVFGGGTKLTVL
9.89
